Assignment: determine reported selectivity ratio for the given compounds.
run description: Selectivity index, ratio of CC50 for human Calu-3 cells infected with SARS-COV-2 to IC50 for SARS-COV 2 infected in human Calu-3 cells
Assay type: toxicity, cell-based
test parameters: read-out: Selectivity Index
Numbers only.

{"columns": ["compound", "endpoint", "experimental value"],
 "data": [
  ["FC(F)(F)c1cccc(Nc2nc(NCCOc3ccccc3)nc3[nH]cnc23)c1", "selectivity ratio", 240],
  ["CCC(CC)COC(=O)[C@H](C)N[P@](=O)(OC[C@H]1O[C@@](C#N)(c2ccc3c(N)ncnn23)[C@H](O)[C@@H]1O)Oc1ccccc1 [REMDESIVIR]", "selectivity ratio", 882]
]}

Field: next compound
Provide only the value of recorded selectivity ratio for CN(C)C(=O)COC(=O)Cc1ccc(OC(=O)c2ccc(NC(=N)N)cc2)cc1 [CAMOSTAT]
243

* * *

run description: Selectivity index, ratio of CC50 for human A549 cells to IC50 for Influenza A Puerto Rico/8/34/H1N1 infected in human A549 cells
Type: toxicity, cell-based
test parameters: read-out: Selectivity Index
What selectivity ratio was measured for each of the following?
Give bare numbers.

Take a look at these entries with their results.
{"columns": ["structure as smiles", "endpoint", "experimental value"],
 "data": [
  ["FC(F)(F)c1cccc(Nc2nc(NCCOc3ccccc3)nc3[nH]cnc23)c1", "selectivity ratio", 11],
  ["Fc1cccc(Nc2nc(NCCOc3ccccc3)nc3[nH]cnc23)c1", "selectivity ratio", 2.8]
]}

Let us move to another entry and its selectivity ratio.
Annotate the compound Fc1cccc(NNc2nc(NCCOc3ccccc3)nc3[nH]cnc23)c1 with its measured selectivity ratio.
3.5
